tested on: Mus musculus; experiment: Phototoxicity in Swiss Albino mouse assessed as ear thickness at 140 mg/kg, po after 4 hrs of irradiation; format: organism-based; set-up: dose 140 mg/kg, route oral; settings: in vivo
Recorded measurements of Activity, one per entry
Measured attribute: Activity (mm)

| Molecule | Readout number |
| --- | --- |
| O=C(O)c1cn(-c2ccc(F)cc2)c2nc(N3CCSCC3)c([N+](=O)[O-])cc2c1=O | 0.27 |
| COc1ccc(CC2C3=C(CCCC3)CCN2c2nc3c(cc2[N+](=O)[O-])c(=O)c(C(=O)O)cn3C2CC2)cc1 (stereo not drawn) | 0.34 |
| CC1(C)COCN1c1nc2c(cc1[N+](=O)[O-])c(=O)c(C(=O)O)cn2C(C)(C)C | 0.28 |

---

tested on: Mycobacterium tuberculosis; experiment: Antimycobacterial activity against Mycobacterium tuberculosis H37Rv by agar dilution method; assay type: functional
Recorded measurements of log10(MIC), one per entry
Measured attribute: log10(MIC) (log10 of the value in µM)

| Compound | Readout number |
| --- | --- |
| O=C(O)c1cn2c(n1)CN(c1nc3c(cc1[N+](=O)[O-])c(=O)c(C(=O)O)cn3-c1ccc(F)cc1)CC2 | -0.42 |
| O=C(O)c1cn(C2CC2)c2nc(N3CCC(N4CCCCC4)CC3)c([N+](=O)[O-])cc2c1=O | 0.85 |
| O=C(O)c1cn(C2CC2)c2nc(N3CCN(Cc4ccc5c(c4)OCO5)CC3)c([N+](=O)[O-])cc2c1=O | 0.50 |
| CC1(C)COCN1c1nc2c(cc1[N+](=O)[O-])c(=O)c(C(=O)O)cn2C(C)(C)C | -1.00 |
| COc1ccc(CC2C3=C(CCCC3)CCN2c2nc3c(cc2[N+](=O)[O-])c(=O)c(C(=O)O)cn3-c2ccc(F)cc2)cc1 (stereo unspecified) | 1.03 |
| CC1CN(c2nc3c(cc2[N+](=O)[O-])c(=O)c(C(=O)O)cn3-c2ccc(F)cc2)CC(C)O1 (stereo unspecified) | -0.37 |
| CCN(CC)C(=O)C1CCCN(c2nc3c(cc2[N+](=O)[O-])c(=O)c(C(=O)O)cn3C2CC2)C1 (stereo unspecified) | 0.53 |
| CC(C)(C)n1cc(C(=O)O)c(=O)c2cc([N+](=O)[O-])c(N3CCN(Cc4ccc5c(c4)OCO5)CC3)nc21 | 0.18 |
| CC(C)(C)n1cc(C(=O)O)c(=O)c2cc([N+](=O)[O-])c(N3CCN(C(=O)C4COc5ccccc5O4)CC3)nc21 (stereo unspecified) | 0.16 |
| CC(C)(C)n1cc(C(=O)O)c(=O)c2cc([N+](=O)[O-])c(N3CCC(n4c(=O)[nH]c5cc(Cl)ccc54)CC3)nc21 | 0.46 |
| O=C(O)c1cn2c(n1)CN(c1nc3c(cc1[N+](=O)[O-])c(=O)c(C(=O)O)cn3C1CC1)CC2 | 0.55 |
| O=C(O)c1cn(-c2ccc(F)cc2)c2nc(N3CCC(N4CCCCC4)CC3)c([N+](=O)[O-])cc2c1=O | 0.50 |
| O=C(O)c1cn(-c2ccc(F)cc2)c2nc(N3CCC(n4c(=O)[nH]c5cc(Cl)ccc54)CC3)c([N+](=O)[O-])cc2c1=O | 0.43 |
| CC(C)(C)NC(=O)C1c2ccccc2CCN1c1nc2c(cc1[N+](=O)[O-])c(=O)c(C(=O)O)cn2C1CC1 (stereo unspecified) | 0.49 |
| COc1ccc(CC2C3=C(CCCC3)CCN2c2nc3c(cc2[N+](=O)[O-])c(=O)c(C(=O)O)cn3C2CC2)cc1 (stereo unspecified) | 0.77 |
| CC1(C)COCN1c1nc2c(cc1[N+](=O)[O-])c(=O)c(C(=O)O)cn2C1CC1 | -0.29 |

---

test system: Mus musculus; assay: Phototoxicity in Swiss Albino mouse assessed as ear thickness at 140 mg/kg, po after 24 hrs of irradiation; format: organism-based; parameters: dose 140 mg/kg, route oral; conditions: in vivo
Recorded measurements of Activity, one per entry
Measured attribute: Activity (mm)

| Mol | System tested | Measured attribute | Readout number |
| --- | --- | --- | --- |
| O=C(O)c1cn2c(n1)CN(c1nc3c(cc1[N+](=O)[O-])c(=O)c(C(=O)O)cn3-c1ccc(F)cc1)CC2 | Mus musculus | Activity | 0.33 |
| CC1(C)COCN1c1nc2c(cc1[N+](=O)[O-])c(=O)c(C(=O)O)cn2C(C)(C)C | Mus musculus | Activity | 0.26 |
| CC(C)(C)n1cc(C(=O)O)c(=O)c2cc([N+](=O)[O-])c(N3CCSCC3)nc21 | Mus musculus | Activity | 0.28 |

---

system: Mus musculus; assay: Phototoxicity in Swiss Albino mouse assessed as ear erythema at 140 mg/kg, po after 4 hrs of irradiation; format: organism-based; parameters: dose 140 mg/kg, route oral; conditions: in vivo
Measured attribute: Activity

| Compound | Measured attribute | Result |
| --- | --- | --- |
| O=C(O)c1cn2c(n1)CN(c1nc3c(cc1[N+](=O)[O-])c(=O)c(C(=O)O)cn3-c1ccc(F)cc1)CC2 | Activity | Toxic |
| COc1ccc(CC2C3=C(CCCC3)CCN2c2nc3c(cc2[N+](=O)[O-])c(=O)c(C(=O)O)cn3C2CC2)cc1 (configuration not stated) | Activity | Non-toxic |
| CC1(C)COCN1c1nc2c(cc1[N+](=O)[O-])c(=O)c(C(=O)O)cn2C(C)(C)C | Activity | Non-toxic |
| O=C(O)c1cn(-c2ccc(F)cc2)c2nc(N3CCSCC3)c([N+](=O)[O-])cc2c1=O | Activity | Non-toxic |
| CC(C)(C)n1cc(C(=O)O)c(=O)c2cc([N+](=O)[O-])c(N3CCSCC3)nc21 | Activity | Non-toxic |
| CC1CN(c2nc3c(cc2[N+](=O)[O-])c(=O)c(C(=O)O)cn3-c2ccc(F)cc2)CC(C)O1 (configuration not stated) | Activity | Non-toxic |
| CCn1cc(C(=O)O)c(=O)c2cc(F)c(N3CCNC(C)C3)c(F)c21 (configuration not stated) | Activity | Toxic |

---

tested on: Mus musculus; experiment: Phototoxicity in UV light irradiated Swiss Albino mouse assessed as ear thickness at 140 mg/kg, po; type: organism-based; design: dose 140 mg/kg, route oral; settings: in vivo
Measured attribute: Activity (mm)

| Compound | Measured attribute | Unit abbreviation | Readout number |
| --- | --- | --- | --- |
| O=C(O)c1cn2c(n1)CN(c1nc3c(cc1[N+](=O)[O-])c(=O)c(C(=O)O)cn3-c1ccc(F)cc1)CC2 | Activity | mm | 0.27 |
| CC1(C)COCN1c1nc2c(cc1[N+](=O)[O-])c(=O)c(C(=O)O)cn2C(C)(C)C | Activity | mm | 0.24 |
| O=C(O)c1cn(-c2ccc(F)cc2)c2nc(N3CCSCC3)c([N+](=O)[O-])cc2c1=O | Activity | mm | 0.25 |
| CC1CN(c2nc3c(cc2[N+](=O)[O-])c(=O)c(C(=O)O)cn3-c2ccc(F)cc2)CC(C)O1 (centres undefined) | Activity | mm | 0.26 |

---

test system: Mus musculus; experiment: Phototoxicity in Swiss Albino mouse assessed as ear erythema at 140 mg/kg, po after 72 hrs of irradiation; assay type: organism-based; design: dose 140 mg/kg, route oral; details: in vivo

| Compound | Activity |
| --- | --- |
| COc1ccc(CC2C3=C(CCCC3)CCN2c2nc3c(cc2[N+](=O)[O-])c(=O)c(C(=O)O)cn3C2CC2)cc1 (configuration not stated) | Non-toxic |
| CC1(C)COCN1c1nc2c(cc1[N+](=O)[O-])c(=O)c(C(=O)O)cn2C(C)(C)C | Toxic |
| O=C(O)c1cn(-c2ccc(F)cc2)c2nc(N3CCSCC3)c([N+](=O)[O-])cc2c1=O | Non-toxic |
| O=C(O)c1cn2c(n1)CN(c1nc3c(cc1[N+](=O)[O-])c(=O)c(C(=O)O)cn3-c1ccc(F)cc1)CC2 | Non-toxic |
| CCn1cc(C(=O)O)c(=O)c2cc(F)c(N3CCNC(C)C3)c(F)c21 (configuration not stated) | Toxic |
| CC(C)(C)n1cc(C(=O)O)c(=O)c2cc([N+](=O)[O-])c(N3CCSCC3)nc21 | Non-toxic |
| CC1CN(c2nc3c(cc2[N+](=O)[O-])c(=O)c(C(=O)O)cn3-c2ccc(F)cc2)CC(C)O1 (configuration not stated) | Non-toxic |

---

tested on: Mus musculus; experiment: Phototoxicity in UV light irradiated Swiss Albino mouse assessed as ear thickness at 140 mg/kg, po; type: organism-based; parameters: dose 140 mg/kg, route oral; settings: in vivo

| Compound | Activity |
| --- | --- |
| CC(C)(C)n1cc(C(=O)O)c(=O)c2cc([N+](=O)[O-])c(N3CCSCC3)nc21 | 0.27 mm |
| CCn1cc(C(=O)O)c(=O)c2cc(F)c(N3CCNC(C)C3)c(F)c21 (stereo not drawn) [LOMEFLOXACIN] | 0.31 mm |
| COc1ccc(CC2C3=C(CCCC3)CCN2c2nc3c(cc2[N+](=O)[O-])c(=O)c(C(=O)O)cn3C2CC2)cc1 (stereo not drawn) | 0.33 mm |
